Tested on: CP262
assay-method-text: qHTS profiling for inhibitors of Plasmodium falciparum proliferation (AID 504749); further: nearly all actives have a fitted effect of over 60% in size
assay-conditions: P. falciparum in erythrocytes, SYBR Green DNA, 72 h; series mostly up to 28.7 µM
Inconclusive results are not listed. Activity calls are given as the source filed them. The call rests on the fitted dose curve; in most records, active means well fitted inhibition curve with a large enough effect; inconclusive means small, poorly fitted or top-dose-only effect; inactive means flat fitted curve, though single readings scatter.
Outcome codes: active, inactive

{"columns": ["compound", "discrete-label"],
 "data": [
  ["CCCCCCC(O)C/C=C/CCCCCCCC(=O)O (stereo not drawn)", "inactive"],
  ["O=C(O)c1cc(O)c2c(c1)[O][Bi][O]2", "inactive"],
  ["C#C[C@]1(O)CC[C@H]2[C@@H]3CCC4=CCCC[C@@H]4[C@H]3C(=C)C[C@@]21CC", "inactive"],
  ["CC(C)(C)C(=O)OCOC(=O)[C@@H]1N2C(=O)[C@@H](N=CN3CCCCCC3)[C@H]2SC1(C)C", "inactive"],
  ["CCCC(=O)O[C@]1(C(=O)CCl)[C@H](C)C[C@@H]2[C@H]3CCC4=CC(=O)C=C[C@]4(C)[C@@]3(F)C(=O)C[C@@]21C", "active"],
  ["Cc1c(C)c2c(c(C)c1O)CC[C@@](C)(CCC[C@H](C)CCC[C@H](C)CCCC(C)C)O2", "inactive"],
  ["Nc1c(N=Nc2ccc(-c3ccc(N=Nc4cc(S(=O)(=O)O)c5ccccc5c4N)cc3)cc2)cc(S(=O)(=O)O)c2ccccc12", "inactive"],
  ["C=C1C(=CC=C2CCC[C@@]3(C)[C@@H]2CC[C@H]3[C@H](C)CCCC(C)C)C[C@@H](O)C[C@@H]1O", "inactive"]
]}
